# System: Myotonic Dystrophy 1 affected patient fibroblasts (Coriell GM04602; 1600 CTG repeats)
# Test description: DM1 foci reduction assay (CAG10-Cy3 FISH, average foci per nucleus)
# Type: cell-based
# Test parameters: Homo sapiens, Fibroblast, 48 h, read-out: Foci Reduction in Fibroblast EC50, 48 h (nM)
Experimental endpoint: EC50

>  <Smiles text>
CCN(CC)CCCC[C@H](NC(=O)CCCCCCCNC(=O)c1ccc(C(C)(C)C)cc1)C(=O)N[C@@H](CO)C(=O)NCCOCCOCCOCCOCCOCCNC(=O)CCNC(=O)c1nc(NC(=O)c2cc(NC(=O)CCNC(=O)c3nc(NC(=O)CCCNC(=O)c4cc(NC(=O)c5nc(NC(=O)CCNC(=O)c6cc(NC(=O)c7nccn7C)cn6C)cn5C)cn4C)cn3C)cn2C)cn1C

>  <Assayed system>
Myotonic Dystrophy 1 affected patient fibroblasts (Coriell GM04602; 1600 CTG repeats)

>  <EC50>
< 100 nM

$$$$

API: the following record is the query input.
Summary line: CCN(CC)CCCC[C@H](NC(=O)[C@H](CC(C)C)NC(=O)[C@H](C)NC(=O)[C@H](Cc1ccccc1)NC(=O)c1ccc(C(C)(C)C)cc1)C(=O)N[C@@H](CO)C(=O)NCCOCCOCCOCCOCCOCCNC(=O)c1nc(NC(=O)c2cc(NC(=O)c3cc(NC(=O)c4nc(NC(=O)CCCNC(=O)c5cc(NC(=O)c6nc(NC(=O)CCNC(=O)c7cc(NC(=O)c8nccn8C)cn7C)cn6C)cn5C)cn4C)cn3C)cn2C)cn1C , Myotonic Dystrophy 1 affected patient fibroblasts (Coriell GM04602; 1600 CTG repeats), reported EC50 = > 500 nM

====

Items are presented alongside their recorded EC50.
# Test system: Myotonic Dystrophy 1 affected patient fibroblasts (Coriell GM04602; 1600 CTG repeats)
# Test description: DM1 foci reduction assay (CAG10-Cy3 FISH, average foci per nucleus)
# Type: cell-based
# Test parameters: Homo sapiens, Fibroblast, 48 h, read-out: Foci Reduction in Fibroblast EC50, 48 h (nM)

Consider the reported EC50 for these molecules:
>  <Smiles text>
CCN(CC)CCCC[C@H](NC(=O)[C@H](CC(C)C)NC(=O)[C@H](C)NC(=O)[C@H](Cc1ccccc1)NC(=O)c1ccccc1)C(=O)N[C@@H](CO)C(=O)NCCOCCOCCOCCOCCOCCNC(=O)CCNC(=O)c1nc(NC(=O)c2cc(NC(=O)CCNC(=O)c3nc(NC(=O)CCCNC(=O)c4cc(NC(=O)c5nc(NC(=O)CCNC(=O)c6cc(NC(=O)c7nccn7C)cn6C)cn5C)cn4C)cn3C)cn2C)cn1C

>  <EC50>
< 100 nM

$$$$
>  <Smiles text>
CCN(CC)CCCC[C@H](NC(=O)CCCCOCCOCCNC(=O)c1ccc(C(C)(C)C)cc1)C(=O)N[C@@H](CO)C(=O)NCCOCCOCCOCCOCCOCCNC(=O)CCNC(=O)c1nc(NC(=O)c2cc(NC(=O)CCNC(=O)c3nc(NC(=O)CCCNC(=O)c4cc(NC(=O)c5nc(NC(=O)CCNC(=O)c6cc(NC(=O)c7nccn7C)cn6C)cn5C)cn4C)cn3C)cn2C)cn1C

>  <EC50>
100 to 500 nM

$$$$
>  <Smiles text>
CCN(CC)CCCC[C@H](NC(=O)[C@H](CC(C)C)NC(=O)[C@H](C)NC(=O)[C@H](Cc1ccccc1)NC(=O)c1ccc(C(C)(C)C)cc1)C(=O)N[C@@H](CO)C(=O)NCCOCCOCCOCCOCCOCCNC(=O)c1cc(NC(=O)c2nc(NC(=O)CCNC(=O)c3cc(NC(=O)c4nc(NC(=O)[C@H](CCNC(=O)c5cc(NC(=O)c6nc(NC(=O)CCNC(=O)c7cc(NC(=O)c8nccn8C)cn7C)cn6C)cn5C)NC(C)=O)cn4C)cn3C)cn2C)cn1C

>  <EC50>
< 100 nM

$$$$

Per the records, this molecule ( CCN(CC)CCCC[C@H](NC(=O)[C@H](CC(C)C)NC(=O)[C@H](C)NC(=O)[C@H](Cc1ccccc1)NC(=O)c1ccc(C(C)(C)C)cc1)C(=O)N[C@@H](CO)C(=O)NCCOCCOCCOCCOCCOCCNC(=O)CCNC(=O)c1nc(NC(=O)c2cc(NC(=O)CCNC(=O)c3nc(NC(=O)[C@@H](CCNC(=O)c4cc(NC(=O)c5nc(NC(=O)CCNC(=O)c6cc(NC(=O)c7nccn7C)cn6C)cn5C)cn4C)NC(C)=O)cn3C)cn2C)cn1C ) has EC50 equal to 100 to 500 nM

// sample CCN(CC)CCCC[C@H](NC(=O)[C@H](CC(C)C)NC(=O)[C@H](C)NC(=O)[C@H](Cc1ccccc1)NC(=O)c1ccc(C(C)(C)C)cc1)C(=O)N[C@@H](CO)C(=O)NCCOCCOCCOCCOCCOCCNC(=O)CCNC(=O)c1cc(NC(=O)c2nc(NC(=O)CCNC(=O)c3nc(NC(=O)CCCNC(=O)c4cc(NC(=O)c5nc(NC(=O)c6cc(NC(=O)CCNC(=O)c7nccn7C)cn6C)cn5C)cn4C)cn3C)cn2C)cn1C , its EC50 was > 500 nM
